Tested on: MCC-26
Experiment: qHTS assay to identify novel small-molecules to repurpose for Merkel cell carcinoma treatment (AID 1296009); also: nearly all actives have a fitted effect of over 60% in size
Conditions: MCC and control cell lines, CellTiter-Glo viability, 72 h; series mostly up to 46 µM
Records with an inconclusive call do not appear. Calls of active or inactive are those of the source. Calls follow the shape of the dose curve; as a rule, active = well fitted inhibition curve with a large enough effect; inconclusive = small, poorly fitted or top-dose-only effect; inactive = flat fitted curve, though single readings scatter.
Outcome codes: active, inactive

compound	class
O=C(Nc1ncc(SCCN2CCCC2)s1)[C@]1(c2ccc(S(=O)(=O)C3CC3)cc2)C[C@@H]1C1CCCCC1	inactive
CC1=C[C@@H]2[C@@H]([C@@H](O)C[C@@]3(C)[C@H]2C[C@@H](C)[C@]3(O)C(=O)CO)[C@@]2(C)Cc3cnn(-c4ccccc4)c3C=C12	inactive
CCCCC(C)(C)[C@H](O)C=C[C@H]1[C@H](O)CC(=O)[C@H]1CC=CCCCC(=O)O	inactive
O=C(O)C1=CO[C@@H](O[C@@H]2O[C@H](CO)[C@H](O)[C@H](O)[C@H]2O)[C@@H]2C(CO)=CC[C@H]12	inactive
COc1cc2c(cc1OC)CC(=O)N(CCCN(C)C[C@H]1Cc3cc(OC)c(OC)cc31)CC2	inactive
Nc1ncnc2c1ncn2[C@@H]1O[C@H](CO)[C@@H](O)[C@@H]1O	inactive
CN1CCC(COc2cnc(-c3cccc(Cn4nc(-c5cccc(C#N)c5)ccc4=O)c3)nc2)CC1	inactive
CN1[C@H]2CC[C@H]1CC(OC(=O)c1c[nH]c3ccccc13)C2 (stereo partly specified)	inactive
COc1ccc(-c2ccc3ncc4c(c3c2)n(-c2ccc(N3CCNCC3)c(C(F)(F)F)c2)c(=O)n4C)cn1	active
N#CC1(c2cccc(C(=O)Nc3cc(Oc4ccc5nc(NC(=O)C6CC6)sc5n4)ccc3F)c2Cl)CC1	active
CC=C1C2C=C(C)CC1(N)c1ccc(=O)[nH]c1C2 (stereo unspecified)	inactive
CC[C@H](C)n1cc(C)c2c(C(=O)NCc3c(C)cc(C)[nH]c3=O)cc(-c3ccc(N4CCNCC4)nc3)cc21	inactive
O=C1CCCC(=O)C1C(=O)c1ccc(C(F)(F)F)cc1[N+](=O)[O-]	inactive
NC[C@H]1O[C@H](O[C@@H]2[C@@H](O)[C@@H](O[C@H]3O[C@H](CO)[C@@H](O)[C@H](N)[C@@H]3O)[C@H](N)C[C@@H]2N)[C@H](O)[C@@H](O)[C@H]1O	inactive
CC(C)(OCc1nn(Cc2ccccc2)c2ccccc12)C(=O)O	inactive
O=c1[nH]c(=O)n([C@H]2C[C@@H](O)[C@@H](CO)O2)cc1I	inactive
CNC(=O)c1ccc2c(C(=Nc3cccc(CN(C)C)c3)c3ccccc3)c(O)[nH]c2c1	inactive
OCCn1cc(-c2ccc3c(c2)CCC3=NO)c(-c2ccncc2)n1	inactive
CO[C@H]1/C=C\O[C@@]2(C)Oc3c(C)c(O)c4c(O)c(c5c(nc6cc(C)ccn65)c4c3C2=O)NC(=O)C(C)=CC=C[C@H](C)[C@H](O)[C@@H](C)[C@@H](O)[C@@H](C)[C@H](OC(C)=O)[C@H]1C	inactive
CC(=O)NCCC(=O)N[C@@H](CCC(N)=O)C(=O)N[C@@H](CO)C(=O)N[C@@H](CCC(N)=O)C(=O)N[C@@H](CCC(N)=O)C(=O)N[C@H](C(=O)N[C@@H](Cc1ccccc1)C(=O)N[C@]1(C)CCCCCCC=CCCC[C@@](C)(C(=O)N[C@@H](CCC(N)=O)C(=O)N[C@@H](CC(N)=O)C(N)=O)NC(=O)[C@H](CC(C)C)NC(=O)[C@H](CC(C)C)NC(=O)[C@@H](CCCNC(=N)N)NC(=O)[C@H](Cc2c[nH]c3ccccc23)NC(=O)[C@H](CC(C)C)NC(=O)[C@H](CC(N)=O)NC1=O)[C@H](C)O	inactive
CN(C)c1ccccc1CN1CCCN(Cc2ccccc2N(C)C)C1c1ccncc1	inactive
O=C(O)C1=NC(C(=O)O)CC(C=CN2c3cc(O)c(OC4OC(CO)C(O)C(O)C4O)cc3CC2C(=O)O)=C1 (stereo unspecified)	inactive
COc1nccc(-c2c(-c3ccc(F)cc3)ncn2C2CCC(O)CC2)n1 (stereo unspecified)	inactive
Cc1cnc(CNC(=O)c2c(=O)c3ccc(N4CCCN(C)CC4)nc3n3c2sc2ccccc23)cn1	inactive
COC(=O)N1CCN(Cc2cccc(NC(=O)Nc3ccc(C)nc3)c2F)CC1	inactive
Cc1ccccc1C(=O)c1ccc(Nc2ccc(Br)cc2N)cc1Cl	inactive
CN1c2ccccc2C(=O)N2CCc3c([nH]c4ccccc34)C21 (stereo unspecified)	inactive
CCN1CCN(c2ccc(Nc3cc(N(C)C(=O)Nc4c(Cl)c(OC)cc(OC)c4Cl)ncn3)cc2)CC1	inactive
COc1cc(Nc2nc3ccccc3nc2NS(=O)(=O)c2ccc(NC(=O)c3ccc(C)c(OC)c3)cc2)cc(OC)c1	inactive
C[C@H]1[C@H](O)O[C@@H]2O[C@@]3(C)CC[C@@H]4[C@H](C)CC[C@@H]1[C@@]24OO3	inactive
CCCCN(CCCC)CC(O)c1cc(Cl)cc2c1-c1ccc(Cl)cc1C2=Cc1ccc(Cl)cc1 (stereo unspecified)	inactive

====

Assay: qHTS of pediatric cancer cell lines to identify multiple opportunities for drug repurposing: Primary screen for TC32 cells (AID 1347089); also: nearly all actives have a fitted effect of over 60% in size
Conditions: TC32 Ewing sarcoma viability, CellTiter-Glo luminescence, 48 h; series mostly up to 45.8 µM
Results filed as inconclusive are left out. Activity calls are given as the source filed them. Calls come from the whole dose curve; as a rule, active = well fitted cell-killing curve with a large enough effect; inconclusive = small, poorly fitted or top-dose-only effect; inactive = flat fitted curve, though single readings scatter.
Outcome codes: active, inactive

molecule	class
CC(=O)Nc1cccc(-n2c(=O)n(C3CC3)c(=O)c3c(Nc4ccc(I)cc4F)n(C)c(=O)c(C)c32)c1	inactive
O=C(c1ccc(C=Cc2n[nH]c3ccccc23)cc1)N1CCNCC1	active
CCCCC[C@H](O)C=C[C@H]1[C@H](O)CC(=O)[C@H]1CC=CCCCC(=O)O	inactive
CNC(=O)c1cc(Oc2ccc(NC(=O)Nc3ccc(Cl)c(C(F)(F)F)c3)c(F)c2)ccn1	inactive
Cc1c(-c2cccc3c(CCCOc4cccc5ccccc45)c(C(=O)O)n(Cc4cccnc4)c23)c(COc2ccc(N3CCN([S+](=O)([O-])N(C)C)CC3)cc2)nn1C	inactive
CCNC(=O)CCCC=CC[C@@H]1[C@H](C=CC(O)CCc2ccccc2)[C@@H](O)C[C@@H]1O (some centres undefined)	inactive
Cn1c(=O)c(-c2c(Cl)cccc2Cl)cc2cnc(Nc3cccc(C(=O)O)c3)nc21	inactive
COc1cc(Cl)cn2c(-c3cccc(NC4CNC4)n3)cnc12	inactive
NC(=O)c1ccc(N(C(N)=O)c2c(F)cccc2F)nc1-c1ccc(F)cc1F	inactive

====

Test system: HEK293
Assay: Cytotoxic Profiling of Annotated Libraries Using Quantitative High-Throughput Screening (AID 1296008); also: nearly all actives have a fitted effect of over 60% in size; also: potency is read from the fitted curve at half-maximal effect
Details: Five cell lines viability, CellTiter-Glo ATP luminescence, 48-72 h
Inconclusive results are not listed. Calls of active or inactive are those of the source. Calls come from the whole dose curve; as a rule, active = well fitted inhibition curve with a large enough effect; inconclusive = small, poorly fitted or top-dose-only effect; inactive = flat fitted curve, though single readings scatter.
readout.label: Potency

molecule	readout.label	value.observed
COc1cc(N2CCN(C)CC2)ccc1Nc1nc(N)c(C(=O)c2c(Cl)cccc2Cl)s1	Potency	23.5 µM (active)
CS(=O)(=O)c1ccc(C2=C(c3ccccc3)C(=O)OC2)cc1	Potency	inactive
Cc1ccccc1C(C(=O)NC1CCCCC1)N(C(=O)CNc1ccc(C#N)cc1)c1cccc(F)c1 (stereo not given)	Potency	inactive
CCN1CCN(c2ccc(Nc3cc(N(C)C(=O)Nc4c(Cl)c(OC)cc(OC)c4Cl)ncn3)cc2)CC1	Potency	16.4 µM (active)
CCCCCCCCCCCCCC(=O)N[C@H](CO)[C@H](O)c1ccc([N+](=O)[O-])cc1	Potency	5.26 µM (active)

====

Assay: Quantitative High-Throughput drug screen in 47 multiple myeloma cell lines against the NCATS MIPE library collection: KMS28PE_JCRB cell viability assay (AID 1918983); also: nearly all actives have a fitted effect of over 35% in size
Details: KMS28PE multiple myeloma viability, CellTiter-Glo ATP, 48 h; series mostly up to 45.8 µM
Inconclusive results are not listed. Activity calls are given as the source filed them. Calls follow the shape of the dose curve; as a rule, active = well fitted cell-killing curve with a large enough effect; inconclusive = small, poorly fitted or top-dose-only effect, or effect the other way; inactive = no such curve, though single readings can be large or run the other way.
Outcome codes: active, inactive

compound	class
CCCCC[C@H](O)C=C[C@H]1[C@H](O)CC(=O)[C@H]1CCCCCCC(=O)O	inactive
CC(=O)OCC(=O)[C@@]1(O)CC[C@H]2[C@@H]3CCC4=CC(=O)C=C[C@]4(C)[C@@H]3[C@@H](O)C[C@@]21C	inactive
c1ccc(CNc2nc(N3CCOc4ccccc43)nc3c2CCCC3)cc1	inactive
CC1=C(CC(=O)O)c2cc(F)ccc2C1=Cc1ccc(S(C)=O)cc1 (centres undefined)	active
C[C@@H]1[C@H](C)CC[C@]2(C(=O)O)CC[C@]3(C)C(=CC[C@@H]4[C@@]5(C)CC[C@H](O)C(C)(C)[C@H]5CC[C@]43C)[C@@H]12	active
C[C@]12CCC3=C4CCC(=O)C=C4CC[C@@H]3[C@H]1CC[C@@]2(O)CC#N	inactive
OC1CCC(Nc2ncc3nc(Nc4c(F)cc(F)cc4F)n([C@@H]4CCOC4)c3n2)CC1 (some centres undefined)	inactive
CC1=C(C(=O)Nc2cc3cn[nH]c3cc2F)C(c2ccc(C(F)(F)F)cc2)CC(=O)N1 (centres undefined)	inactive
Cc1cccc(-c2[nH]c(C(C)(C)C)nc2-c2ccc3c(c2)OCO3)n1	active
O=C(O)C1=CC(O)C(O)[C@H](O)C1 (some centres undefined)	inactive
CN(C)S(=O)(=O)c1ccc2c(c1)C(=Cc1cc3c([nH]1)CCCC3)C(=O)N2	active
CCCCCCCCCCCCCC(=O)N[C@H](CO)[C@H](O)c1ccc([N+](=O)[O-])cc1	active
CCC(C)SSc1ncc[nH]1 (centres undefined)	active
CN(C)CCOc1ccc(-c2nc(-c3ccc4c(c3)CCC4=NO)c(-c3ccncc3)[nH]2)cc1	active
CN1CC(=O)NC1=NC(=O)Nc1cccc(Cl)c1	inactive
CN1CCN2c3ncccc3Cc3ccccc3C2C1 (centres undefined)	inactive
O=C(O)c1ccc(O)c2ncc(N3CCOCC3)cc12	inactive
OC[C@H]1O[C@@H](O[C@H]2[C@@H](O)[C@@](O)(CO)O[C@@H]2CO)[C@H](O)[C@@H](O)[C@@H]1O	inactive
CCOC(=O)N1CCN([N+]([O-])=NOc2cc(ON=[N+]([O-])N3CCN(C(=O)OCC)CC3)c([N+](=O)[O-])cc2[N+](=O)[O-])CC1	active
